Values compiled from patent US20110294843A1.

TEST_DETAILS: Pharmacokinetics of M6G at single and multiple intravenous doses in healthy volunteers
Assay type: in vivo, human
SETUP_CONDITIONS: both sexes, human, plasma, iv, 30 mg/70 kg, single 5 min iv infusion 30 mg; Median
METRIC_NAME: clearance (mL/min)

{"columns": ["COMPOUND", "TEST_RESULT"],
 "data": [
  ["CN1CC[C@]23c4c5ccc(O)c4O[C@H]2[C@@H](OC2OC(C(=O)O)C(O)C(O)C2O)C=CC3[C@H]1C5 (stereo partly shown)", 125]
]}

---

TEST_DETAILS: Pharmacokinetics of M6G at single and multiple intravenous doses in healthy volunteers
Type: in vivo, human
SETUP_CONDITIONS: both sexes, human, plasma, iv, 15 mg/70 kg, single 5 min iv infusion 15 mg; Median; read-out: MRT0-∞

{"columns": ["COMPOUND", "MRT inf [h]"],
 "data": [
  ["CN1CC[C@]23c4c5ccc(O)c4O[C@H]2[C@@H](OC2OC(C(=O)O)C(O)C(O)C2O)C=CC3[C@H]1C5 (stereo partly shown) [M6G]", 1.69]
]}
